- TARGET_SYSTEM: A. fumigatus PPTB (Aspergillus fumigatus, UniProt Q4W9R0)
- Construct: NusA; His tag (vector-encoded, inferred from Ni-NTA purification); made in house; host or cells: E. coli BL21 (DE3)
- Sequence (Q4W9R0 whole entry): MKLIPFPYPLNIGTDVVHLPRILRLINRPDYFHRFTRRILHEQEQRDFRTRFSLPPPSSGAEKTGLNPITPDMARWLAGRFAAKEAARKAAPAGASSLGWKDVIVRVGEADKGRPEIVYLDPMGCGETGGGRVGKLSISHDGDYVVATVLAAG
- PROCEDURE_SUMMARY: fluorescence polarisation PPTB assay / high-throughput screen (CoA-Bodipy TMR transfer to ACP)
- Type: biochemical
- TEST_CONTEXT: IC50 for CoA, assay carried out using unlabelled coenzyme A; plates read on day one
RECORDED_ENDPOINT: pIC50
Numbers only, as −log10 of the molar value.

Prompt: Tell me its pIC50 given CC(C)(COP(=O)(O)OP(=O)(O)OC[C@H]1O[C@@H](n2cnc3c(N)ncnc32)[C@H](O)[C@@H]1OP(=O)(O)O)[C@@H](O)C(=O)NCCC(=O)NCCS as the entry.
Response: 5.22

---

- TARGET_SYSTEM: A. fumigatus PPTB (Aspergillus fumigatus, UniProt Q4W9R0)
- Construct: NusA; His tag (vector-encoded, inferred from Ni-NTA purification); made in house; host or cells: E. coli BL21 (DE3)
- PROCEDURE_SUMMARY: fluorescence polarisation PPTB assay / high-throughput screen (CoA-Bodipy TMR transfer to ACP)
- Format: biochemical
- TEST_CONTEXT: IC50 for CoA, assay carried out using unlabelled coenzyme A; plates read after 105 hours
RECORDED_ENDPOINT: IC50 (µM)
Answers are plain numbers, in µM.

Prompt: Tell me its IC50 given CC(C)(COP(=O)(O)OP(=O)(O)OC[C@H]1O[C@@H](n2cnc3c(N)ncnc32)[C@H](O)[C@@H]1OP(=O)(O)O)[C@@H](O)C(=O)NCCC(=O)NCCS as the entry.
Response: 5.9
